Target: T1, monkey macaca fascicularis PRLR construct with an HA tag on HEK293/mfPRLR cells (macaca fascicularis, UniProt A0A2K5WXK1 25-619)
T1 construct: stably transfected into HEK293
T1 sequence: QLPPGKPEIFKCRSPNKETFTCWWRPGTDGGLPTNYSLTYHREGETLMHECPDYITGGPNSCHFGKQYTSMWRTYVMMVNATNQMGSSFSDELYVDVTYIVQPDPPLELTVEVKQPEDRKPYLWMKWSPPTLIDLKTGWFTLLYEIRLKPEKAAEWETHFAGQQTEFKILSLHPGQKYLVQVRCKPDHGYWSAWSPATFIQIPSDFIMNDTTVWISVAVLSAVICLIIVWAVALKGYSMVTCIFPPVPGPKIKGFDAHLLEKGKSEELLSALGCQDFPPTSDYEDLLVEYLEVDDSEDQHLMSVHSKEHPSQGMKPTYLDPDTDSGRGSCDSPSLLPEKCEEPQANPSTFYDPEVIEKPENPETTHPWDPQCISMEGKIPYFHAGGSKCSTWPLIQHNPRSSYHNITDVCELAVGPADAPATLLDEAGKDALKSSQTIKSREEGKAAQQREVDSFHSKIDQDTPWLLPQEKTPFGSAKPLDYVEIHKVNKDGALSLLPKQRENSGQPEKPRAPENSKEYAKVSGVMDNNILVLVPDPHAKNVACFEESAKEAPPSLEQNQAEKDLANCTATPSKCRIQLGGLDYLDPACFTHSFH
Assay: FACS on HEK293/mfPRLR cells
readout type: FACS Cell Binding (Fold Above Background) (fold)

binder | u | value observed
H1H6960N (antibody, human IgG1, V domains shown, also called H2M6960N) VH: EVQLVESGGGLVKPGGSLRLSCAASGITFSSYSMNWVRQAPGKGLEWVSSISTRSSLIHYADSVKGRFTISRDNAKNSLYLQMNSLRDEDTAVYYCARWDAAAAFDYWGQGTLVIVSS VL: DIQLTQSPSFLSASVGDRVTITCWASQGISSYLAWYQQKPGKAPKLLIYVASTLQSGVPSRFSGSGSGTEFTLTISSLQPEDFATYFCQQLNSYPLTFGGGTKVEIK | fold | 23
H1H6976N (antibody, human IgG1, V domains shown, also called H2M6976N) VH: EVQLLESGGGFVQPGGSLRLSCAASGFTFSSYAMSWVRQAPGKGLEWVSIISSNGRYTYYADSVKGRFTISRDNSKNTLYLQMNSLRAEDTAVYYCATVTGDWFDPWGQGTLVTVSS VL: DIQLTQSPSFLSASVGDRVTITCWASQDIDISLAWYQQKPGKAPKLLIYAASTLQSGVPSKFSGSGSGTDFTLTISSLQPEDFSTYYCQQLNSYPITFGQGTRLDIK | fold | 29
H1H6785P (antibody, human IgG1, V domains shown, human IgG1 Fc (H1H)) VH: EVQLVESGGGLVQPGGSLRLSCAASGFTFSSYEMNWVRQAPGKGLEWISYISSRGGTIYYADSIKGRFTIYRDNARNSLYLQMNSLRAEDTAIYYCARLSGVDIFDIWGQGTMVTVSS VL: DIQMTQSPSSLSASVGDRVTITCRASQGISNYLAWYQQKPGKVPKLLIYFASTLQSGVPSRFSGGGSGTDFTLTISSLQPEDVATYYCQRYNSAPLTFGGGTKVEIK | fold | 26
H1H6765P (antibody, human IgG1, V domains shown, human IgG1 Fc (H1H)) VH: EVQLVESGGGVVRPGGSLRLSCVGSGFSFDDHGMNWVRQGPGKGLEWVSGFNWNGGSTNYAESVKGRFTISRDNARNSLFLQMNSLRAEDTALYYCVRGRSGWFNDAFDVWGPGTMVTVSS VL: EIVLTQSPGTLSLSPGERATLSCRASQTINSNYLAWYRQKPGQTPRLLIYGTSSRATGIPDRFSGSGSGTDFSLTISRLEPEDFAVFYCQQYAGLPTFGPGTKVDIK | fold | 27
H1H6975N (antibody, human IgG1, V domains shown, also called H2M6975N) VH: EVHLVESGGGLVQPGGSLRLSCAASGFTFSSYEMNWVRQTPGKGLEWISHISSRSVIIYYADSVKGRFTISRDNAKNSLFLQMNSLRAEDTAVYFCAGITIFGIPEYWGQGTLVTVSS VL: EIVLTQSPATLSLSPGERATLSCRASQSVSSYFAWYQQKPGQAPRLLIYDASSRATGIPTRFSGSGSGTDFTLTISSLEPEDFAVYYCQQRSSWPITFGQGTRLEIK | fold | 29
